target: α2β1 (Mus musculus; Rattus norvegicus, UniProt P15431+P26048); construct: gene Gabra2; binary GABA-A receptor, mouse alpha2 + rat beta1; Xenopus oocytes; test: two-electrode voltage clamp, Xenopus oocytes; type: cell-based; conditions: read-out: Taurine / EC50
pEC50: −log10 of the molar value.
attribute measured: pEC50

>>> measured("NCCS(=O)(=O)O")
1.09

----------
biological target: α2β1γ2 (δ74–79) (Mus musculus; Rattus norvegicus, UniProt P15431+P26048); construct: gene Gabra2; mouse alpha2 + rat beta1 + mouse gamma2L with IDIFFA (74-79) replaced by delta motif MTVFLH; printed primers also encode T81S and Y83R, text names 74-79 only; Xenopus oocytes; with Gamma-aminobutyric acid receptor subunit gamma-2; experiment: two-electrode voltage clamp, Xenopus oocytes; type: cell-based; conditions: read-out: Taurine / EC50
Sequence (P26048 29-451): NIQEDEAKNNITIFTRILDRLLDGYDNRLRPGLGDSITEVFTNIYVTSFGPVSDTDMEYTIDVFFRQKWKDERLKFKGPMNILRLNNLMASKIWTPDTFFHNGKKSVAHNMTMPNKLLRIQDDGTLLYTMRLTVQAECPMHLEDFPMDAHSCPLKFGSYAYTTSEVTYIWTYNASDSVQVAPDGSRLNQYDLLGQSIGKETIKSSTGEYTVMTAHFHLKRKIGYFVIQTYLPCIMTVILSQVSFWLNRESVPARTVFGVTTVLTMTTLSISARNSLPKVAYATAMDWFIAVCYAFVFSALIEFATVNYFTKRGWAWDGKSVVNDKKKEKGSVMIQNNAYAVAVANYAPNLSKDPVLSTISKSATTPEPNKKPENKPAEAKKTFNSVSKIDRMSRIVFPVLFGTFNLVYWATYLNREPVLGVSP
Sequence (P15431 26-474): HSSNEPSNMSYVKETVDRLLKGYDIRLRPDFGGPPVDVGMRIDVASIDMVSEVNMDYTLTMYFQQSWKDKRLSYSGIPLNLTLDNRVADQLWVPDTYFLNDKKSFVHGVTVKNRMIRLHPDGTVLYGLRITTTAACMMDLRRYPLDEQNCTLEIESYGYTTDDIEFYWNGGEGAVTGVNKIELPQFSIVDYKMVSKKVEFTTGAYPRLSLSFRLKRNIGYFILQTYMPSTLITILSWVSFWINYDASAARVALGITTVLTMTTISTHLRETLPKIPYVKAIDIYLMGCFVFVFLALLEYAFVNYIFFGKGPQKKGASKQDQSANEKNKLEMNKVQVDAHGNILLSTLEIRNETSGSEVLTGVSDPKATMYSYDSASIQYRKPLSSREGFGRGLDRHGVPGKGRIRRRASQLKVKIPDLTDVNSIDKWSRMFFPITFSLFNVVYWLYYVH
Sequence (P22723 with tags, fused parts or gaps I112M/D113T/I114V/F116L/A117H/T119S/Y121R partner): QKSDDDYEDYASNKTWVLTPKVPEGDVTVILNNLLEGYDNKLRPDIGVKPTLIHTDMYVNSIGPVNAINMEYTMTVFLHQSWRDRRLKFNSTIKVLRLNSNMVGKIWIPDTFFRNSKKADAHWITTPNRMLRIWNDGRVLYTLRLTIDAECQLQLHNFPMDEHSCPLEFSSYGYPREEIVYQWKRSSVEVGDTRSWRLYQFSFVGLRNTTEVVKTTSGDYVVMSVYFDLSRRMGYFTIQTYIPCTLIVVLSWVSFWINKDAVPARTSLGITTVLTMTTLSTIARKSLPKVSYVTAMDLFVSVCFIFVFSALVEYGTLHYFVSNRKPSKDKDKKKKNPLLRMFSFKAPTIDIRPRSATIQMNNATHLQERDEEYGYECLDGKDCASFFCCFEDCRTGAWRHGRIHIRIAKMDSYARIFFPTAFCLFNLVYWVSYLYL
attribute measured: EC50

>>> measured("NCCS(=O)(=O)O")
"40.5 mM"

----------
biological target: α2β3 (Mus musculus; Homo sapiens, UniProt P26048+P28472); construct: binary GABA-A receptor, mouse alpha2 + human beta3; Xenopus oocytes; assay: two-electrode voltage clamp, Xenopus oocytes; settings: read-out: Taurine / EC50
Sequence (P28472 26-473, one chain of several): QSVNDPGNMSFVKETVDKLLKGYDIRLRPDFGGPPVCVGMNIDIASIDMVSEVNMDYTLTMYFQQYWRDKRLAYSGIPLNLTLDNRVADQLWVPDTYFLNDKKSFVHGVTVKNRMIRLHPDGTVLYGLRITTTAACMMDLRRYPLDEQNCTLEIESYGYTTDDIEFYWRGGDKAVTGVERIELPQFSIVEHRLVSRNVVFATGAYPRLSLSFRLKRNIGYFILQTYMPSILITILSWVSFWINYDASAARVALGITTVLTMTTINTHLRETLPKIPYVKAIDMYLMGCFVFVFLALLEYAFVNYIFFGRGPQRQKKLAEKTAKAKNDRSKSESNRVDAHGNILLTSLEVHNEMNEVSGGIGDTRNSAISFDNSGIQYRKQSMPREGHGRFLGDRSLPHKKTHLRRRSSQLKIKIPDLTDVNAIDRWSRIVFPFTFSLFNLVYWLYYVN
attribute measured: EC50 (mM)

>>> measured("NCCS(=O)(=O)O [taurine, 2-aminoethane sulfonic acid]")
24.5

----------
target: α2β1γ2 (Rattus norvegicus; Mus musculus, UniProt P15431+P26048); construct: ternary GABA-A receptor, mouse alpha2 + rat beta1 + mouse gamma2L; Xenopus oocytes, cRNA ratio 10:1:10; with Gamma-aminobutyric acid receptor subunit gamma-2; experiment: two-electrode voltage clamp, Xenopus oocytes; settings: read-out: Taurine / EC50
Sequence (P26048 29-451 F77I, one chain of several): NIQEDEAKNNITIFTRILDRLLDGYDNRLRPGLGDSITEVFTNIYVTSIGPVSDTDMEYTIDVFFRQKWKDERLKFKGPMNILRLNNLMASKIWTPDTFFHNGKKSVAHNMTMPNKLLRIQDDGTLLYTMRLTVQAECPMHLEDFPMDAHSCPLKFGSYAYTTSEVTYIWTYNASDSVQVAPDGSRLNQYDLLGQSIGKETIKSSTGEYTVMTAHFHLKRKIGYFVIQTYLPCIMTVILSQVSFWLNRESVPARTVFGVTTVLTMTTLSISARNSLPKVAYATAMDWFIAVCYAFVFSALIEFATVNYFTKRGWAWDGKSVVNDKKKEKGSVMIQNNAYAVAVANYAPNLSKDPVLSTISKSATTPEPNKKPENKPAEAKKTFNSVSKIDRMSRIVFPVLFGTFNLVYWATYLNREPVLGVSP
Sequence (P22723 39-474 partner, one chain of several): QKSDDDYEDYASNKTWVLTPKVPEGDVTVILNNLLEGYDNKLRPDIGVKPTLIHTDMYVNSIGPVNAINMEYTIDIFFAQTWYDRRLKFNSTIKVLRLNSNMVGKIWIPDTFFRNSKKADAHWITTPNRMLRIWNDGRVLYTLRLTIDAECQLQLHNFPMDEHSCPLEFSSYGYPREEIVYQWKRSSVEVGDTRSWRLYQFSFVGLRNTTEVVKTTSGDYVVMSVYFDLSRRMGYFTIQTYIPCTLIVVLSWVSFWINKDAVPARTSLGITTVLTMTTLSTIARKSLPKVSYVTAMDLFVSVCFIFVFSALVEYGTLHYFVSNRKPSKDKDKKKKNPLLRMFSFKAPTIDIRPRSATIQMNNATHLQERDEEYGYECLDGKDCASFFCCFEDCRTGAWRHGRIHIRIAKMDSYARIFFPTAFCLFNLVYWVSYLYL
attribute measured: EC50 (mM)

>>> measured("NCCS(=O)(=O)O")
76.1

----------
molecular target: α2β3γ2 (Mus musculus; Homo sapiens, UniProt P22723+P26048+P28472); construct: ternary GABA-A receptor, mouse alpha2 + human beta3 + mouse gamma2L; Xenopus oocytes, cRNA ratio 10:1:10; agonist site alpha/beta, zolpidem site alpha/gamma; experiment: two-electrode voltage clamp, Xenopus oocytes; conditions: read-out: Taurine / EC50
Sequence (P28472 26-473, one chain of several): as the sequence (P28472 26-473, one chain of several) above
Sequence (P22723 39-474, one chain of several): as the sequence (P22723 39-474 partner, one chain of several) above
attribute measured: EC50

>>> measured("NCCS(=O)(=O)O")
"51.2 mM"
